Test system: SKM MF
Experiment: SKM MF AC1.4: ATPase of skeletal sarcomeric proteins (actin, tropomyosin, troponin complex, myosin), PK/LDH coupled enzyme system
Type: biochemical
Conditions: screen at pCa=6.5; † mean value, ‡ median value
List of SKM MF AC1.4 values.

CCC(CC)n1c(O)nc2nccnc21 ... 16.0^† μM
C/C=C/c1cnc2nc(O)n(C(C)C)c2n1 ... 7.1 µM

Query: Record request: SKM MF AC1.4 value, item CC(C)(CN1CCOCC1)n1c(O)nc2ncc(Br)nc21
Reply: 16.4^‡ μM

###

List of SKM MF AC1.4 values.
Tested on: SKM MF
Experiment: SKM MF AC1.4: ATPase of skeletal sarcomeric proteins (actin, tropomyosin, troponin complex, myosin), PK/LDH coupled enzyme system
Format: biochemical
Settings: screen at pCa=6.5; † mean value, ‡ median value

Study these solved cases before continuing.
C[C@H](CN1CCOCC1)n1c(O)nc2ncc(Br)nc21 ... 5.2^‡ μM
CCC(CN1CCN(S(C)(=O)=O)CC1)n1c(O)nc2ncc(Br)nc21 (stereo not shown) ... 3.2^† μM
CCC(CC)n1c(O)nc2ncc(C(F)(F)F)nc21 ... 10.4^‡ μM

With those in mind, consider the next compound.
Query: Record request: SKM MF AC1.4 value, item CCC(CN1CCN(C(=O)OC)CC1)n1c(O)nc2ncc(Br)nc21 (stereo not shown)
Reply: 0.9^† μM
